Measured values drawn from ChEMBL document CHEMBL1151440 for this set.

- protocol-description: AUC (0 to 8 hrs) in human at 200 mg administered with fat meal every 8 hrs for 8 days measured on day 8
- Type: ADME, organism-based
- Parameters: time < 8 hr, dose 200 mg
- assay-context: plasma
parameter: AUC at 8 h (µg·h/mL)
API: value field is a number in µg·h/mL; no unit string.

Give the measured AUC at 8 h of Cn1c(=O)c(C(=O)NCCO)c(O)c2ncc(Cc3ccc(F)cc3)cc21 . 4.9

* * *

- protocol-description: Apparent oral clearance in human at 200 mg administered with fat meal as single dose
- Assay type: ADME, organism-based
- assay-context: in vivo
parameter: CL/F (mL/min)
Expressed in mL/min, but write only the number.

Given the entry Cn1c(=O)c(C(=O)NCCO)c(O)c2ncc(Cc3ccc(F)cc3)cc21 , report its measured CL/F. 317

* * *

- protocol-description: Tmax in fasted human at 400 mg administered with fat meal as single dose
- Assay type: ADME, organism-based
- assay-context: in vivo
parameter: Tmax

What value of Tmax has been reported for the following compound? Cn1c(=O)c(C(=O)NCCO)c(O)c2ncc(Cc3ccc(F)cc3)cc21 7 h

* * *

- protocol-description: AUC (0 to 12 hrs) in human at 50 mg administered with fat meal every 12 hrs for 8 days measured on day 8
- Type: ADME, organism-based
- Set-up: dose 50 mg, time < 12 hr
- assay-context: plasma
parameter: AUC at 12 h

Record request: AUC at 12 h value, item Cn1c(=O)c(C(=O)NCCO)c(O)c2ncc(Cc3ccc(F)cc3)cc21 [GSK-364735] 5600 ng·h/mL

* * *

- protocol-description: Terminal elimination half life in human at 200 mg administered with fat meal every 8 hrs for 8 days measured on day 1
- Format: ADME, organism-based
- assay-context: in vivo, read-out: beta t1/2 (converted)
parameter: half-life
Provide a numeric answer, followed by its unit.

// query half-life value for entry Cn1c(=O)c(C(=O)NCCO)c(O)c2ncc(Cc3ccc(F)cc3)cc21 3.7 h

* * *

- protocol-description: Terminal elimination half life in iv dosed monkey
- Format: ADME, organism-based, Macaca mulatta
- assay-context: rhesus monkey, in vivo, read-out: beta t1/2 (converted)
parameter: half-life (h)
# value in h; strip the unit string

Looking for the measured half-life of Cn1c(=O)c(C(=O)NCCO)c(O)c2ncc(Cc3ccc(F)cc3)cc21 , can you help? 1.5

* * *

- protocol-description: Oral bioavailability rat
- Type: ADME, organism-based
- assay-context: in vivo
parameter: bioavailability (%)
Output spec: scalar in %, unitless text.

# input compound: Cn1c(=O)c(C(=O)NCCO)c(O)c2ncc(Cc3ccc(F)cc3)cc21 ; wanted: its bioavailability 6

* * *

- protocol-description: Apparent oral clearance in human at 50 mg administered with fat meal every 12 hrs for 8 days measured on day 8
- Assay type: ADME, organism-based
- assay-context: in vivo
parameter: CL/F (mL/min)
Just the number please, in mL/min, no unit attached.

Item Cn1c(=O)c(C(=O)NCCO)c(O)c2ncc(Cc3ccc(F)cc3)cc21 has what recorded CL/F? 150

* * *

- protocol-description: Cmax in human at 200 mg administered with fat meal every 8 hrs for 8 days measured on day 8
- Format: ADME, organism-based
- Set-up: dose 200 mg
- assay-context: in vivo
parameter: Cmax (ng/mL)
Record the value in ng/mL, omitting the unit from your answer.

For Cn1c(=O)c(C(=O)NCCO)c(O)c2ncc(Cc3ccc(F)cc3)cc21 [GSK-364735] , what is its reported Cmax? 970

* * *

- protocol-description: Apparent oral clearance in fasted human at 50 mg administered as single dose
- Assay type: ADME, organism-based
- assay-context: in vivo
parameter: CL/F (mL/min)
Output spec: scalar in mL/min, unitless text.

Quick one: CL/F of Cn1c(=O)c(C(=O)NCCO)c(O)c2ncc(Cc3ccc(F)cc3)cc21 ? 267

* * *

- protocol-description: Tmax in human at 50 mg administered with fat meal every 12 hrs for 8 days measured on day 8
- Type: ADME, organism-based
- assay-context: in vivo
parameter: Tmax
Please don't drop the unit; write it after the number.

Reported Tmax for Cn1c(=O)c(C(=O)NCCO)c(O)c2ncc(Cc3ccc(F)cc3)cc21 [GSK-364735] : what is it? 3.75 h

* * *

- protocol-description: AUC (0 to infinity) in fasted human at 400 mg administered as single dose
- Format: ADME, organism-based
- Design: dose 400 mg, time infinity
- assay-context: plasma
parameter: AUC(0-inf) (µg·h/mL)
// return numeric value only (unit: µg·h/mL, not printed)

Item Cn1c(=O)c(C(=O)NCCO)c(O)c2ncc(Cc3ccc(F)cc3)cc21 [GSK-364735] has what recorded AUC(0-inf)? 6.6

* * *

- protocol-description: Terminal elimination half life in human at 50 mg administered with fat meal every 12 hrs for 8 days measured on day 1
- Format: ADME, organism-based
- assay-context: in vivo, read-out: beta t1/2 (converted)
parameter: half-life (h)
Report as a plain number; the unit h is understood.

Look up half-life: Cn1c(=O)c(C(=O)NCCO)c(O)c2ncc(Cc3ccc(F)cc3)cc21 2.6

* * *

- protocol-description: Plasma concentration in human at 400 mg administered with fat meal every 12 hrs for 8 days measured on day 1 after 12 hrs of first dose
- Type: ADME, organism-based
parameter: concentration at 12 h (ng/mL)
Could you give me the number in ng/mL? Just the number is fine.

What value of concentration at 12 h has been recorded for this entry: Cn1c(=O)c(C(=O)NCCO)c(O)c2ncc(Cc3ccc(F)cc3)cc21 340

* * *

- protocol-description: Cmax in human at 50 mg administered with fat meal every 12 hrs for 8 days measured on day 8
- Format: ADME, organism-based
- Design: dose 50 mg
- assay-context: in vivo
parameter: Cmax (µg/mL)
Number in µg/mL, nothing else.

Any idea what Cmax was measured for Cn1c(=O)c(C(=O)NCCO)c(O)c2ncc(Cc3ccc(F)cc3)cc21 ? 1.4

* * *

- protocol-description: AUC (0 to 24 hrs) in human at 400 mg administered with fat meal daily for 8 days measured on day 8
- Type: ADME, organism-based
- Set-up: dose 400 mg, time < 24 hr
- assay-context: plasma
parameter: AUC at 24 h (ng·h/mL)
Give the number; ng·h/mL is assumed, so skip it.

Reported AUC at 24 h for Cn1c(=O)c(C(=O)NCCO)c(O)c2ncc(Cc3ccc(F)cc3)cc21 : what is it? 12000

* * *

- protocol-description: Terminal elimination half life in human at 200 mg administered with fat meal every 8 hrs for 8 days measured on day 8
- Format: ADME, organism-based
- assay-context: in vivo, read-out: beta t1/2 (converted)
parameter: half-life (h)
Field: numeric (h). Do not append units.

I would be grateful if you could share the reported half-life for Cn1c(=O)c(C(=O)NCCO)c(O)c2ncc(Cc3ccc(F)cc3)cc21 . 4

* * *

- protocol-description: Plasma concentration in human at 200 mg administered with fat meal every 8 hrs for 8 days measured on day 1 after 12 hrs of first dose
- Assay type: ADME, organism-based
parameter: concentration at 12 h
Don't forget the unit after the number, please.

Could you tell me which concentration at 12 h is on file for Cn1c(=O)c(C(=O)NCCO)c(O)c2ncc(Cc3ccc(F)cc3)cc21 ? 130 ng/mL

* * *

- protocol-description: AUC (0 to 12 hrs) in human at 100 mg administered with fat meal every 12 hrs for 8 days measured on day 8
- Format: ADME, organism-based
- Set-up: time < 12 hr, dose 100 mg
- assay-context: plasma
parameter: AUC at 12 h (ng·h/mL)
Quick reminder: number only, in ng·h/mL, skip the unit.

Any idea what its AUC at 12 h is? The compound is Cn1c(=O)c(C(=O)NCCO)c(O)c2ncc(Cc3ccc(F)cc3)cc21 12000

* * *

- protocol-description: Tmax in human at 200 mg administered with fat meal every 8 hrs for 8 days measured on day 1
- Format: ADME, organism-based
- assay-context: in vivo
parameter: Tmax (h)
Quick reminder: number only, in h, skip the unit.

Look at this compound and give its reported Tmax. Cn1c(=O)c(C(=O)NCCO)c(O)c2ncc(Cc3ccc(F)cc3)cc21 [GSK-364735] 3.75

* * *

- protocol-description: Cmax in human at 100 mg administered with fat meal every 12 hrs for 8 days measured on day 1
- Format: ADME, organism-based
- Design: dose 100 mg
- assay-context: in vivo
parameter: Cmax (ng/mL)
# unit: ng/mL | format: bare number

Please report the recorded Cmax for Cn1c(=O)c(C(=O)NCCO)c(O)c2ncc(Cc3ccc(F)cc3)cc21 . 2500

* * *

- protocol-description: AUC (0 to infinity) in human at 400 mg administered with fat meal as single dose
- Format: ADME, organism-based
- Parameters: dose 400 mg, time infinity
- assay-context: plasma
parameter: AUC(0-inf) (ng·h/mL)
Answer in ng·h/mL, number only, no unit symbol.

Can you look up the measured AUC(0-inf) of Cn1c(=O)c(C(=O)NCCO)c(O)c2ncc(Cc3ccc(F)cc3)cc21 for me? 8500
